The reported numbers originate from paper PMC10250618.

Measurement target: h-P2Y2 (Homo sapiens)
Construct: host or cells: human 1321N1 astrocytoma cells, stably transfected
Sequence (P41231 whole entry): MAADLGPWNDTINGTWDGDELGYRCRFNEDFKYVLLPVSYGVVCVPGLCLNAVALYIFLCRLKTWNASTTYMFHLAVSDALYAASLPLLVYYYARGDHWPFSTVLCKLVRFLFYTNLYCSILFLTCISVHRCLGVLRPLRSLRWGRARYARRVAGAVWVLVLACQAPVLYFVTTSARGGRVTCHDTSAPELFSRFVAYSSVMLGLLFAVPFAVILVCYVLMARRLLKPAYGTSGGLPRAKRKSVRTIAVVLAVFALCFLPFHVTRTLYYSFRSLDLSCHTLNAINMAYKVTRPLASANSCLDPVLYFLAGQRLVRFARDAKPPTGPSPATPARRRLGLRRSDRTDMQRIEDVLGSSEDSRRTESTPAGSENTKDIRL
Measurement description: Calcium mobilization assay, h-P2Y2 transfected 1321N1 astrocytoma cells
Assay type: cell-based
Details: 1321-N1; final conc of 100 μM; 500 μM ATP
Each entry gets -1 if its inhibition at 100 µM stays under 30%, and 1 if its inhibition at 100 µM is 30% or above.

Solved cases (4 shown):
Cc1ccc(S(=O)(=O)NC(=O)n2c(N)nc3ccccc32)cc1	-1
Cc1ccc(S(=O)(=O)NC(=O)n2c(N)nc3cc(Cl)ccc32)cc1	1
Cc1ccc([N+](=O)[O-])cc1S(=O)(=O)NC(=O)n1c(N)nc2ccccc21	1
O=C(NS(=O)(=O)c1ccc(-c2ccccc2)cc1)n1c(-c2ccccc2)nc2ccccc21	1

Record `Cc1ccc([N+](=O)[O-])cc1S(=O)(=O)NC(=O)n1c(N)nc2cc(Cl)ccc21` ; criterion: inhibition at 100 µM no lower than 30%. Met?
1
